# maps each entry to its % Activation
- study target: ΔF508-CFTR (Homo sapiens, UniProt P13569, DEL508-508)
- Construct: host or cells: CFBE41o-, doxycycline-inducible
- Sequence (P13569 with tags, fused parts or gaps DEL508-508): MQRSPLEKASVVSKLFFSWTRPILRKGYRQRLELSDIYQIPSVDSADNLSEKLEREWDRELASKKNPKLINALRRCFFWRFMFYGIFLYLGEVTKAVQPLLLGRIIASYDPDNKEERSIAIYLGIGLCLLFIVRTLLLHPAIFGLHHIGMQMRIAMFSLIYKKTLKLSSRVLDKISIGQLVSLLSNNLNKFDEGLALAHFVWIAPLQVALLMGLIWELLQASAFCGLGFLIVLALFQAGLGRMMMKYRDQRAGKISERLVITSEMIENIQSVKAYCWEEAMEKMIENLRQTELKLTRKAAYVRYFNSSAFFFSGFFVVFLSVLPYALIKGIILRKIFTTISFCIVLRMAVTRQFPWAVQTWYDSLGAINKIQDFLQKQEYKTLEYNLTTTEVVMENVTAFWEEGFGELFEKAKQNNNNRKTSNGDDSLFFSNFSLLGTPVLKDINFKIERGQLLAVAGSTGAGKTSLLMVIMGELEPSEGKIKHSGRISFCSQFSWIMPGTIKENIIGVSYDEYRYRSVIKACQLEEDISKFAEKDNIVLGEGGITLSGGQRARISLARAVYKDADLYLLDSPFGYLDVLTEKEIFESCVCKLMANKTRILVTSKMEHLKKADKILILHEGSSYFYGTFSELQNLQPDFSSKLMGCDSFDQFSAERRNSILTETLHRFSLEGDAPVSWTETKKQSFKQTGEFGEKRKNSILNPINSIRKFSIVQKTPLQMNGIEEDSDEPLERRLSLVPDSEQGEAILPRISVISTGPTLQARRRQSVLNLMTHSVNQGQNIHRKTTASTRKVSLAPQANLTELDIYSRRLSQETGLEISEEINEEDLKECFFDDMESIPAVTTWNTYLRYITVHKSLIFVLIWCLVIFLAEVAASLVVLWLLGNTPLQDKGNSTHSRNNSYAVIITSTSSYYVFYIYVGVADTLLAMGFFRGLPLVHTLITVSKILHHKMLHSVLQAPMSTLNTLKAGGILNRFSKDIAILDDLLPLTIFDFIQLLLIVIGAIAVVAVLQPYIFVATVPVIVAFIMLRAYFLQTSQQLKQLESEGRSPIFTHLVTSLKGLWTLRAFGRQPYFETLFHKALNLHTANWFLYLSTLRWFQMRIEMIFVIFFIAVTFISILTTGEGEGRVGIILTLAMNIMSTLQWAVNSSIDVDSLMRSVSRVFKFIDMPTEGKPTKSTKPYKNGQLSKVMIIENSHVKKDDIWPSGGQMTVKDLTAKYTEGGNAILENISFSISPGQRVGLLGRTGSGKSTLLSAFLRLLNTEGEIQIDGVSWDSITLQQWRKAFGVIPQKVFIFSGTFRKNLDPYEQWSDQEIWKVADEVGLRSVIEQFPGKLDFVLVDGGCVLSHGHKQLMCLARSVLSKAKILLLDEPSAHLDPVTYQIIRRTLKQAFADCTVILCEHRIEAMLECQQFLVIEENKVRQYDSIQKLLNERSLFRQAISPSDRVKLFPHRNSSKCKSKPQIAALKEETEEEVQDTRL
- measurement protocol: CFTR cell surface levels using HRP-tagged ΔF508-CFTR expressing CFBE cells, in the presence of a co-corrector
- Assay type: cell-based
- condition info: HRP-tagged ΔF508-CFTR CFBE cells, in the presence of 3 μM co-corrector
The answer is to be given in %; state only the numeric part.

Known % Activation results, listed for orientation:
CC(C)c1nn(-c2ccnc(N3CCOCC3)c2)c2nc(C(=O)NS(=O)(=O)N(C)C)cc(OCC3CCOCC3)c12 = 280
COCCS(=O)(=O)NC(=O)c1cc(-c2ccc(C(=O)N3CCC(N(C)C)CC3)cc2)c2c(OC(C)C)nn(C3CCCCC3)c2n1 = 318.7
COCC1CCN(c2cc(C(=O)NS(=O)(=O)CCCN(C)C)nc3c2c(C(C)C)nn3-c2ccc(F)cc2)CC1 = 382.2

Q: What reported % Activation corresponds to `CCS(=O)(=O)NC(=O)c1cc(-c2ccc(OC)cc2)c2c(C)nn(-c3ccccc3)c2n1` on ΔF508-CFTR (Homo sapiens, UniProt P13569, DEL508-508)?
A: 346.15

Q: What reported % Activation corresponds to `COCCOCC1(F)CCN(c2cc(C(=O)NS(C)(=O)=O)nc3c2c(C2CCC2)nn3-c2ccccc2)CC1` on ΔF508-CFTR (Homo sapiens, UniProt P13569, DEL508-508)?
A: 383.8

Q: What reported % Activation corresponds to `CC1(COc2cc(C(=O)NS(C)(=O)=O)nc3c2c(C2CCC2)nn3-c2ccccc2)CC(F)(F)C1` on ΔF508-CFTR (Homo sapiens, UniProt P13569, DEL508-508)?
A: 379.95

Q: What reported % Activation corresponds to CC(C)c1nn(-c2ccc(F)cc2)c2nc(C(=O)NS(C)(=O)=O)cc(OCC3CCCO3)c12 (centres unmarked) on ΔF508-CFTR (Homo sapiens, UniProt P13569, DEL508-508)?
A: 298.07

Q: What reported % Activation corresponds to `CC(C)c1nn(-c2cccc(N(C)C)c2)c2nc(C(=O)NS(C)(=O)=O)cc(-c3cnc(N4CCOCC4)nc3)c12` on ΔF508-CFTR (Homo sapiens, UniProt P13569, DEL508-508)?
A: 534.8

Numbers sourced from patent US10259810B2.
